Data origin: patent US12685312B2

Recorded measurements of % Inhibition of Apyrase, one per entry
# Test system: apyrase
# test summary: Screen for apyrase inhibitors (Method 1, in vitro phosphate-release absorbance assay)
# Format: biochemical
# measurement context: inhibitor conc at 1 mM stock, 1 hr room temperature, absorbance 630 nm; rounded average of two assay results
Give your result in % as a bare value.

Query block: Value lookup for % Inhibition of Apyrase; key = Cc1ccc(N(C)S(=O)(=O)c2cccc(C(=O)Nc3ccc4c(c3)CCC4)c2)cc1
Result block: 57

Query block: Value lookup for % Inhibition of Apyrase; key = COc1ccccc1NC(=O)c1ccc(NS(=O)(=O)c2ccc(C#N)cc2)cc1
Result block: 49

Query block: Value lookup for % Inhibition of Apyrase; key = O=C(Nc1cccc(S(=O)(=O)Nc2ccccc2F)c1)c1cccs1
Result block: 1

Query block: Value lookup for % Inhibition of Apyrase; key = Cc1ccccc1NS(=O)(=O)c1cc(C(=O)Nc2cccc([N+](=O)[O-])c2)ccc1Cl
Result block: 77

----------
Recorded measurements of % Inhibition of Apyrase, one per entry
# Test system: apyrase
# test summary: Screen for apyrase inhibitors (Method 1, in vitro phosphate-release absorbance assay)
# Format: biochemical
# measurement context: inhibitor conc at 1 mM stock, 1 hr room temperature, absorbance 630 nm; rounded average of two assay results
Give your result in % as a bare value.

Worked set:
molecule=O=C(Nc1ccc2c(c1)CCC2)c1ccc(NS(=O)(=O)c2ccc3c(c2)OCCO3)cc1 measurement_units=% measured_value=60
molecule=O=C(Nc1cccc(NS(=O)(=O)c2ccc(Cl)cc2)c1)c1ccc(F)cc1F measurement_units=% measured_value=59
molecule="CC1Cc2ccccc2N1S(=O)(=O)c1cccc(C(=O)N2CCCc3cc(F)c(F)cc32)c1 (stereo not drawn)" measurement_units=% measured_value=51
molecule=COc1ccccc1NC(=O)c1ccc(NS(=O)(=O)c2ccc(Cl)c(C(F)(F)F)c2)cc1 measurement_units=% measured_value=59
molecule=Cc1ccc(C(=O)Nc2cccc(S(=O)(=O)Nc3cccc(C(F)(F)F)c3)c2)cn1 measurement_units=% measured_value=51

Query block: Value lookup for % Inhibition of Apyrase; key = O=C(Nc1ccc(F)c(Cl)c1)c1cccc(S(=O)(=O)Nc2ccc(F)cc2)c1
Result block: 61

----------
# System: apyrase
# test summary: Screen for apyrase inhibitors (Method 1, in vitro phosphate-release absorbance assay)
# Assay type: biochemical
# measurement context: inhibitor conc at 1 mM stock, 1 hr room temperature, absorbance 630 nm; rounded average of two assay results
measured parameter: % Inhibition of Apyrase (%)
Give your result in % as a bare value.

Worked set:
molecule=O=C(Nc1ccc(Br)cc1)c1cccc(S(=O)(=O)Nc2cccc([N+](=O)[O-])c2)c1 measured_value=29
molecule=O=C(c1cc(S(=O)(=O)Nc2cccc(C(F)(F)F)c2)ccc1Cl)N1CCCc2ccccc21 measured_value=59

Proceeding to the next molecule to report its % Inhibition of Apyrase.
Query block: For apyrase, provide % Inhibition of Apyrase of COc1ccc(NS(=O)(=O)c2ccc(NC(=O)c3ccc(F)cc3)cc2)cc1 please.
Result block: 3

----------
# Tested on: apyrase
# test summary: Screen for apyrase inhibitors (Method 1, in vitro phosphate-release absorbance assay)
# Type: biochemical
# measurement context: inhibitor conc at 1 mM stock, 1 hr room temperature, absorbance 630 nm; rounded average of two assay results
Recorded measurements of % Inhibition of Apyrase, one per entry
Give your result in % as a bare value.

Worked set:
compound="Cc1ccc(NC(=O)c2cccc(NS(=O)(=O)c3ccc(C)c(F)c3)c2)nc1 [I-655]" measured_parameter="% Inhibition of Apyrase" measurement_units=% measured_value=35
compound="COc1cc(Cl)c(C)cc1NC(=O)c1ccccc1S(=O)(=O)N(C)c1ccccc1 [I-807]" measured_parameter="% Inhibition of Apyrase" measurement_units=% measured_value=82
compound="COc1ccc(C(CNC(=O)c2cccc(S(=O)(=O)Nc3ccc(Br)cc3)c2)N(C)C)cc1 (stereo not shown) [I-279]" measured_parameter="% Inhibition of Apyrase" measurement_units=% measured_value=42

Query block: Value lookup for % Inhibition of Apyrase; key = NS(=O)(=O)c1ccc(NC(=O)c2ccc(NS(=O)(=O)c3ccc(F)c(Cl)c3)cc2)cc1 [I-961]
Result block: 14

----------
# System: apyrase
# test summary: Screen for apyrase inhibitors (Method 1, in vitro phosphate-release absorbance assay)
# Assay type: biochemical
# measurement context: inhibitor conc at 1 mM stock, 1 hr room temperature, absorbance 630 nm; rounded average of two assay results
Recorded measurements of % Inhibition of Apyrase, one per entry
Give your result in % as a bare value.

Worked set:
molecule=O=C(Nc1nccs1)c1cccc(NS(=O)(=O)c2ccc3c(c2)OCCCO3)c1 measured_parameter="% Inhibition of Apyrase" measured_value=54
molecule=O=C(Nc1ccc(OC(F)F)cc1)c1ccc(NS(=O)(=O)c2ccccc2)cc1 measured_parameter="% Inhibition of Apyrase" measured_value=36
molecule=COc1ccc(NC(=O)c2cccc(S(=O)(=O)N3CCc4ccccc43)c2)cc1 measured_parameter="% Inhibition of Apyrase" measured_value=60

Query block: Value lookup for % Inhibition of Apyrase; key = COc1ccccc1NS(=O)(=O)c1ccc(NC(=O)c2ccccc2SCC2CCCO2)cc1 (stereo not shown)
Result block: 57

----------
Recorded measurements of % Inhibition of Apyrase, one per entry
# Tested on: apyrase
# test summary: Screen for apyrase inhibitors (Method 1, in vitro phosphate-release absorbance assay)
# Format: biochemical
# measurement context: inhibitor conc at 1 mM stock, 1 hr room temperature, absorbance 630 nm; rounded average of two assay results
Give your result in % as a bare value.

compound="NS(=O)(=O)c1cccc(NC(=O)c2cccc(S(=O)(=O)N3CCc4ccccc43)c2)c1 [I-529]" measured_value=55
compound="COc1ccc(NS(=O)(=O)c2cc(C)ccc2NC(=O)c2cc(C)oc2C)cc1 [I-818]" measured_value=60
compound="CN(C1CCCCC1)S(=O)(=O)c1ccccc1NC(=O)c1c(F)cccc1F [I-824]" measured_value=52
compound="Cc1ccc(NC(=O)c2cccc(S(=O)(=O)N3CCc4ccccc43)c2)cc1C [I-452]" measured_value=60
compound="CN(c1ccccc1)S(=O)(=O)c1ccccc1C(=O)Nc1ccc(S(=O)(=O)N2CCCC2)cc1 [I-215]" measured_value=58
compound="COc1ccc(NS(=O)(=O)c2ccc(C(=O)Nc3ccc4c(c3)OCCO4)cc2)cc1 [I-887]" measured_value=43

Query block: Value lookup for % Inhibition of Apyrase; key = COc1cc(OC)c(NS(=O)(=O)c2ccc(C)c(C(=O)N3CCc4ccccc43)c2)cc1Cl [I-570]
Result block: 51

Query block: Value lookup for % Inhibition of Apyrase; key = CC1Cc2ccccc2N1S(=O)(=O)c1cccc(C(=O)Nc2ccccc2C(C)(C)C)c1 (centres unmarked) [I-534]
Result block: 54

----------
Recorded measurements of % Inhibition of Apyrase, one per entry
# Tested on: apyrase
# test summary: Screen for apyrase inhibitors (Method 1, in vitro phosphate-release absorbance assay)
# Format: biochemical
# measurement context: inhibitor conc at 1 mM stock, 1 hr room temperature, absorbance 630 nm; rounded average of two assay results
Give your result in % as a bare value.

Worked set:
molecule="Cc1ccc(NS(=O)(=O)c2ccc(C(=O)N3CC4CCCN4Cc4ccccc43)cc2)cc1 (centres unmarked)" measured_parameter="% Inhibition of Apyrase" measurement_units=% measured_value=30
molecule=C=CCN(c1ccc(Cl)cc1)S(=O)(=O)c1ccc(Cl)c(C(=O)N2CCc3ccccc32)c1 measured_parameter="% Inhibition of Apyrase" measurement_units=% measured_value=58
molecule=COc1ccc(NC(=O)c2cccc(NS(=O)(=O)c3ccc(Br)cc3)c2)cn1 measured_parameter="% Inhibition of Apyrase" measurement_units=% measured_value=54
molecule=O=C(Nc1cccc(OC(F)F)c1)c1cccc(S(=O)(=O)Nc2cccc(C(F)(F)F)c2)c1 measured_parameter="% Inhibition of Apyrase" measurement_units=% measured_value=33
molecule=O=C(NCc1ccco1)c1cccc(S(=O)(=O)Nc2ccc(Br)cc2)c1 measured_parameter="% Inhibition of Apyrase" measurement_units=% measured_value=11
molecule=O=C(Nc1cccc(S(=O)(=O)N2CCCCC2)c1)c1cccc(S(=O)(=O)N2CCc3ccccc32)c1 measured_parameter="% Inhibition of Apyrase" measurement_units=% measured_value=61
molecule="Cc1ccc(NS(=O)(=O)c2ccc(C(=O)N3c4ccccc4CC3C)cc2)cc1 (centres unmarked)" measured_parameter="% Inhibition of Apyrase" measurement_units=% measured_value=62

Query block: Value lookup for % Inhibition of Apyrase; key = O=C(Nc1ccc(Cl)cc1Cl)c1cccc(S(=O)(=O)Nc2ccc(Cl)cc2)c1
Result block: 56

----------
# Tested on: apyrase
# test summary: Screen for apyrase inhibitors (Method 1, in vitro phosphate-release absorbance assay)
# Assay type: biochemical
# measurement context: inhibitor conc at 1 mM stock, 1 hr room temperature, absorbance 630 nm; rounded average of two assay results
Recorded measurements of % Inhibition of Apyrase, one per entry
Give your result in % as a bare value.

molecule=O=C(c1cccc(S(=O)(=O)N2CCc3ccccc32)c1)N1CCCc2ccccc21 test_system=apyrase measured_value=57

Query block: Value lookup for % Inhibition of Apyrase; key = COc1cc(C(=O)Nc2cccc(S(=O)(=O)N(C)c3ccccc3)c2)ncn1
Result block: 37

Query block: Value lookup for % Inhibition of Apyrase; key = Cc1ccnc(NC(=O)c2cccc(NS(=O)(=O)c3ccc4c(c3)OCCCO4)c2)c1
Result block: 25

Query block: Value lookup for % Inhibition of Apyrase; key = CC1Cc2ccccc2N1S(=O)(=O)c1cccc(C(=O)Nc2cccc3cccnc23)c1 (centres unmarked)
Result block: 58

Query block: Value lookup for % Inhibition of Apyrase; key = CCc1cccc(NC(=O)c2ccc(S(=O)(=O)Nc3ccc(Cl)cc3)cc2)c1
Result block: 51

Query block: Value lookup for % Inhibition of Apyrase; key = Cc1ccc(NC(=O)c2cccc(S(=O)(=O)Nc3cccc(Cl)c3)c2)nc1
Result block: 36

Query block: Value lookup for % Inhibition of Apyrase; key = CN(c1ccccc1)S(=O)(=O)c1ccccc1C(=O)Nc1ccc(Cl)cc1F [I-355]
Result block: 43

Query block: Value lookup for % Inhibition of Apyrase; key = O=C(Nc1nc2ccccc2[nH]1)c1cccc(NS(=O)(=O)c2ccc3c(c2)OCCO3)c1
Result block: 34
